# Lookup of reported pIC50 keyed by entry
- System: human stomach adenocarcinoma (AGS)
- ASSAY_DETAILS: In vitro anticancer assay (MTT), AGS
- Type: cell-based
- TEST_PARAMETERS: Homo sapiens, AGS cells, 48 hrs, mean ± spread, read-out: Anti-proliferative evaluation IC50, AGS
pIC50: −log10 of the molar value.

| MOLECULE | REPORTED_RELATION | pIC50 |
| --- | --- | --- |
| CNCC(O)CN1CCN(c2nc3ccccc3c3c2-c2ccc(OC)cc2C3=O)CC1 (stereo not shown) | = | 5.02 |
| COc1ccc2c(c1)C(=NO)c1c-2c(N2CCNCC2)nc2ccccc12 | = | 5.77 |
| COc1ccc2c(c1)C(=NOCCN1CCCC1)c1c-2cnc2ccccc12 | < | 4.52 |
| COc1ccc2c(c1)C(=NOCCN1CCCCC1)c1c-2c(N2CCNCC2)nc2ccccc12 | = | 5.15 |
| COc1ccc2c(c1)C(=NOCCN(C)C)c1c-2c(N2CCNCC2)nc2ccccc12 | = | 5.17 |
| COc1ccc2c(c1OC)C(=O)c1c-2c(N2CCNCC2)nc2ccc(Cl)cc12 | = | 5.02 |
| COc1ccc2c(c1)C(=NO)c1c-2c(N2CCN(C(=O)CCNCCN(C)C)CC2)nc2ccccc12 | = | 5.13 |
| COc1ccc2c(c1)C(=O)c1c-2c(N2CCNCC2)nc2ccccc12 | = | 5.00 |
| CON=C1c2ccccc2-c2c(N3CCNCC3)nc3ccccc3c21 | = | 5.09 |
| COc1ccc2c(c1)C(=O)c1c-2c(NCCCN(C)C)nc2ccccc12 | = | 4.84 |
| COc1ccc2c(c1)C(=NOCCN1CCCC1)c1c-2c(N2CCNCC2)nc2ccccc12 | = | 5.32 |
| COc1ccc2c(c1)C(=NOCCCN)c1c-2c(N2CCNCC2)nc2ccccc12 | = | 5.23 |
| COc1ccc2c(c1)C(=O)c1c-2c(N2CCN(CC3CO3)CC2)nc2ccccc12 (stereo not shown) | = | 4.67 |
| COc1ccc2c(c1)C(=O)c1c-2c(N2CCN(C(=O)CCNCCN(C)C)CC2)nc2ccccc12 | = | 5.31 |
| COc1ccc2c(c1)C(=O)c1c-2c(Nc2ccc(C(C)=O)cc2)nc2ccccc12 | = | 5.23 |
| CN(C)CCNc1nc2ccccc2c2c1-c1ccccc1C2=O | = | 5.10 |

* * *

- System: human renal clear cell carcinoma
- ASSAY_DETAILS: In vitro anticancer assay (MTT), RCC 768-O
- Assay type: cell-based
- TEST_PARAMETERS: RCC 768-O cells, 48 hrs, mean ± spread, read-out: Anti-proliferative evaluation IC50, RCC 768-O
# Lookup of reported IC50 keyed by entry
READOUT: IC50 (µM)

| COMPOUND | TEST_TARGET | REPORTED_RELATION | READING |
| --- | --- | --- | --- |
| COc1ccc2c(c1)C(=O)c1c-2c(N2CCN(C(=O)CN(C)C)CC2)nc2ccccc12 | human renal clear cell carcinoma | = | 14.1 |
| COc1cccc2c1C(=O)c1c-2c(N2CCNCC2)nc2ccccc12 | human renal clear cell carcinoma | = | 1.7 |
| COc1ccc2c(c1)C(=NO)c1c-2c(OC)nc2ccccc12 | human renal clear cell carcinoma | > | 30 |
| COc1ccc2c(c1)C(=O)c1c-2c(N2CCN(C(=O)CCNCCN3CCNCC3)CC2)nc2ccccc12 | human renal clear cell carcinoma | > | 30 |
| CON=C1c2cc(OC)ccc2-c2c(N3CCN(C(=O)CCN(C)C)CC3)nc3ccccc3c21 | human renal clear cell carcinoma | = | 5.3 |
| COc1ccc2c(c1)C(=O)c1c-2c(N2CCCNCC2)nc2ccccc12 | human renal clear cell carcinoma | = | 10.2 |
| COc1ccc2c(c1)C(=O)c1c-2c(N2CCN(C(=O)CNCCCN(C)C)CC2)nc2ccccc12 | human renal clear cell carcinoma | = | 10 |
| ON=C1c2cc(F)ccc2-c2c(N3CCNCC3)nc3ccccc3c21 | human renal clear cell carcinoma | = | 2.3 |
| COc1ccc2c(c1)C(=O)c1c-2c(N2CCC(N)C2)nc2ccccc12 (centres unmarked) | human renal clear cell carcinoma | > | 30 |
| COc1ccc2c(c1)C(=O)c1c-2c(N2CCNC(C)C2)nc2ccccc12 (centres unmarked) | human renal clear cell carcinoma | = | 13.6 |
| COc1ccc2c(c1)C(=O)c1c-2c(N2CCN(C(=O)CCNCCN)CC2)nc2ccccc12 | human renal clear cell carcinoma | > | 30 |
| COc1ccc2c(c1)C(=O)c1c-2c(N2CCN(C(=O)CCO)CC2)nc2ccccc12 | human renal clear cell carcinoma | = | 18.5 |
| COc1ccc2c(c1)C(=O)c1c-2c(N2CCN(C(=O)CNCCN)CC2)nc2ccccc12 | human renal clear cell carcinoma | = | 10.5 |
| COc1ccc2c(c1)C(=O)c1c-2c(N2CCN(C(=O)CCNCCNCCO)CC2)nc2ccccc12 | human renal clear cell carcinoma | = | 15 |
| COc1ccc2c(c1)C(=O)c1c-2c(N2CCN(C(=O)CCCN(C)C)CC2)nc2ccccc12 | human renal clear cell carcinoma | = | 5.3 |
| COc1ccc2c(c1)C(=O)c1c-2c(N2CCN(C(=O)CNCCN3CCNCC3)CC2)nc2ccccc12 | human renal clear cell carcinoma | = | 5.6 |
| COc1ccc2c(c1)C(=NOCC1CO1)c1c-2c(N2CCN(CC3CO3)CC2)nc2ccccc12 (centres unmarked) | human renal clear cell carcinoma | = | 8.8 |

* * *

- Test system: esophageal carcinoma (CE81T)
- ASSAY_DETAILS: In vitro anticancer assay (MTT), CE81T
- Format: cell-based
- TEST_PARAMETERS: CE81T cells, 48 hrs, mean ± spread, read-out: Anti-proliferative evaluation IC50, CE81T
pIC50: −log10 of the molar value.

| COMPOUND | REPORTED_RELATION | pIC50 |
| --- | --- | --- |
| O=C1c2ccccc2-c2c(N3CCNCC3)nc3ccccc3c21 | = | 4.95 |
| CON=C1c2cc(F)ccc2-c2c(N3CCNCC3)nc3ccccc3c21 | = | 5.47 |
| CON=C1c2ccccc2-c2c(N3CCNCC3)nc3ccccc3c21 | = | 6.40 |
| COc1ccc2c(c1)C(=O)c1c-2c(N2CCC(N)CC2)nc2ccccc12 | = | 5.85 |
| COc1ccc2c(c1)C(=O)c1c-2c(N2CCC(N)C2)nc2ccccc12 (centres unmarked) | < | 4.52 |
| COc1ccc2c(c1)C(=O)c1c-2c(N2CCNC(C)C2)nc2ccccc12 (centres unmarked) | = | 5.48 |
| COc1ccc2c(c1)C(=O)c1c-2c(N2CCN(C(=O)CCNCCCN(C)CCCN)CC2)nc2ccccc12 | < | 4.52 |
| COc1ccc2c(c1)C(=O)c1c-2c(N2CCN(CC3CO3)CC2)nc2ccccc12 (centres unmarked) | = | 6.22 |
| COc1ccc2c(c1)C(=O)c1c-2c(N2CCN(C(=O)CCN3CCNCC3)CC2)nc2ccccc12 | = | 5.14 |
| COc1ccc2c(c1)C(=NOCC1CO1)c1c-2c(N2CCN(CC3CO3)CC2)nc2ccccc12 (centres unmarked) | = | 5.70 |
| CN(C)CCNc1nc2ccccc2c2c1-c1ccccc1C2=O | = | 5.39 |
| O=C1c2ccccc2-c2c(NCCNCCO)nc3ccccc3c21 | < | 4.52 |
| COc1ccc(Nc2nc3ccccc3c3c2-c2ccc(OC)cc2C3=O)c(OC)c1 | = | 4.64 |
| COc1ccc2c(c1)C(=O)c1c-2c(N2CCN(C(=O)CCNCCNCCN)CC2)nc2ccccc12 | < | 4.52 |
| CON=C1c2cc(OC)ccc2-c2c(N3CCN(C(=O)CCN(C)C)CC3)nc3ccccc3c21 | = | 5.52 |
| COc1ccc2c(c1)C(=NOCCN(C)C)c1c-2c(N2CCNCC2)nc2ccccc12 | < | 4.52 |
| COc1ccc2c(c1)C(=O)c1c-2c(N2CCN(C(=O)CNCCCN(C)C)CC2)nc2ccccc12 | < | 4.52 |

* * *

- System: esophageal carcinoma (CE81T)
- ASSAY_DETAILS: In vitro anticancer assay (MTT), CE81T
- Format: cell-based
- TEST_PARAMETERS: CE81T cells, 48 hrs, mean ± spread, read-out: Anti-proliferative evaluation IC50, CE81T
Structures can show the parent of a compound that is named as a salt.
READOUT: IC50 (µM)

| COMPOUND | TEST_TARGET | READOUT | READING |
| --- | --- | --- | --- |
| COc1ccc2c(c1)C(=O)c1c-2c(NCCCN(C)C)nc2ccccc12 [Compound 5i] | esophageal carcinoma (CE81T) | IC50 | 7.1 |
| COc1ccc2c(c1)C(=O)c1c-2c(N2CCN(C(=O)CNCCNCCO)CC2)nc2ccccc12 [Compound 5rr] | esophageal carcinoma (CE81T) | IC50 | 6.6 |
| COc1cccc2c1C(=O)c1c(O)c3c(c(O)c1C2=O)C[C@@](O)(C(=O)CO)C[C@@H]3O[C@H]1C[C@H](N)[C@H](O)[C@H](C)O1 [Dox, doxorubicin hydrochloride, reference compound] | esophageal carcinoma (CE81T) | IC50 | 0.3 |
